Reference source for all entries: ChEMBL document CHEMBL4831537

protocol.text: Cytotoxicity against mouse BV-2 cells assessed as cell viability by MTT assay
Assay type: cell-based
Parameters: concentration or dose not given beside the values
condition.summary: read-out: Activity
property.label: viability
Answer by giving the amount and then stating its unit.

// worked examples, viability included
CC(=O)OC[C@@H](C)[C@@H]1CC[C@]2(C(=O)O)CC[C@]3(C)[C@H](CC[C@@H]4[C@@]5(C)CCC(=O)C(C)(C)[C@@H]5C[C@H](O)[C@]43C)[C@@H]12 : 98.8%
C=C(COO)[C@@H]1CC[C@]2(C(=O)O)CC[C@]3(C)[C@H](CC[C@@H]4[C@@]5(C)CCC(=O)C(C)(C)[C@@H]5CC[C@]43C)[C@@H]12 : 101%
C=C(C)[C@@H]1CC[C@]2(C(=O)O)CC[C@]3(C)[C@H](C[C@H](O)[C@@H]4[C@@]5(C)CCC(=O)C(C)(C)[C@@H]5C[C@H](O)[C@]43C)[C@@H]12 : 88.4%
C=C(C)[C@@H]1CC[C@]2(C(=O)O)CC[C@]3(C)[C@H](CC[C@@H]4[C@@]5(C)CCC(=O)[C@@](C)(COC(C)=O)[C@@H]5C[C@H](O)[C@]43C)[C@@H]12 : 103%
CC(=O)[C@@H]1CC[C@]2(C(=O)O)CC[C@]3(C)[C@H](CC[C@@H]4[C@@]5(C)CCC(=O)C(C)(C)[C@@H]5C[C@H](O)[C@]43C)[C@@H]12 : 106%
CNC(=N)NCCC[C@H](N)C(=O)O : 110%

Kindly indicate its recorded viability. Item: `C=C(C)[C@@H]1CC[C@]2(C(=O)O)C[C@H](O)[C@]3(C)[C@H](CC[C@@H]4[C@@]5(C)CCC(=O)[C@@](C)(CO)[C@@H]5C[C@H](O)[C@]43C)[C@@H]12`
105%

Output viability of `C=C(C)[C@@H]1CC[C@]2(C(=O)O)CC[C@]3(C)[C@H](CC[C@@H]4[C@@]5(C)CC(=O)[C@H](O)C(C)(C)[C@@H]5C[C@H](O)[C@]43C)[C@@H]12`
97.3%

###

protocol.text: Cytotoxicity against mouse BV-2 cells assessed as cell viability by MTT assay
Format: cell-based
Design: concentration or dose not given beside the values
condition.summary: read-out: Activity
property.label: viability (%)
I only need the number, in %, no unit after it.

C=C(CO)[C@@H]1CC[C@]2(C(=O)O)CC[C@]3(C)[C@H](CC[C@@H]4[C@@]5(C)CCC(=O)C(C)(C)[C@@H]5C[C@H](O)[C@]43C)[C@@H]12 : 103
C=C(C)[C@@H]1CC[C@]2(C(=O)O)CC[C@]3(C)[C@H](CC[C@@H]4[C@@]5(C)CCC(=O)[C@@](C)(CO)[C@@H]5C[C@H](O)[C@]43C)[C@@H]12 : 110

Consider the compound `C=C(C)[C@@H]1CC[C@]2(C(=O)O)CC[C@]3(C)[C@H](CC[C@@H]4[C@@]5(C)CCC(=O)C(C)(C)[C@@H]5C[C@H](O)[C@]43C)[C@@H]12` . State its measured viability.
99.2

Using known records, supply viability for `C=C(C)[C@@H]1CC[C@]2(C(=O)O[C@@H]3O[C@H](CO)[C@@H](O)[C@H](O)[C@H]3O)CC[C@]3(C)[C@H](CC[C@@H]4[C@@]5(C)CCC(=O)C(C)(C)[C@@H]5C[C@H](O)[C@]43C)[C@@H]12`
101

Quote viability reported for `C=C(C)[C@@H]1CC[C@]2(C(=O)O)CC[C@]3(C)[C@H](CC[C@@H]4[C@@]5(C)CCC(=O)C(C)(C)[C@@H]5C[C@H](OC(C)=O)[C@]43C)[C@@H]12` please.
102
